experiment: A qHTS for Small Molecule Inhibitors of Shiga Toxin; details: Vero cells, Shiga toxin protein synthesis inhibition reporter; at 38.7 µM
Among all 290,000 compounds or so, about 27,000 (9.3%) were called active. No stated cut-off is given here; in the data, active means inhibition mostly above about 28% (no sharp cut-off); inactive means mostly below about 43%. The entries come from a sample that favours actives as a whole.
Outcomes: active, inactive

INSERT INTO results (compound, class_name) VALUES
  ('CC1CCC(NC(=O)CN(C)S(=O)(=O)c2ccc3c(c2)c(=O)n(C)c(=O)n3C)CC1 (centres undefined)', 'inactive'),
  ('CS(=O)(=O)N(CC(=O)N1CCOCC1)c1cccc(Cl)c1Cl', 'inactive'),
  ('COc1ccc(Nc2ncnc3ccc(Br)cc23)c(OC)c1', 'active'),
  ('NNC(=O)c1nnn(-c2nonc2N)c1CN1CCCC1', 'inactive'),
  ('Cc1cnc(CN(C)C(=O)C2CCC(=O)N(CCc3cccc(F)c3)C2)[nH]1 (centres undefined)', 'inactive'),
  ('CCOc1c2ccc(C(=O)NCc3ccc4c(c3)OCO4)cc2nn1C', 'inactive'),
  ('CC(C)Cn1c(=O)c2ccccc2n2c(CCC(=O)NCc3ccccn3)nnc12', 'inactive'),
  ('COc1cc(-c2c(-c3ccc4c(c3)OCO4)noc2C)ccc1F', 'active'),
  ('CCOC(=O)c1c(-c2ccc(-c3ccccc3)cc2)csc1NC(=O)CCC(=O)O', 'inactive'),
  ('COc1ccc(Nc2ncnc3sc(-c4ccccc4)cc23)c(OC)c1', 'inactive'),
  ('Fc1ccc(-c2ccc(-c3nn4c(-c5ccco5)nnc4s3)o2)cc1', 'active'),
  ('CC(=O)Nc1cccc(Nc2nc(-c3cccs3)nc3ccccc23)c1', 'inactive'),
  ('COc1ccc2cc(C(=O)O)n(CC(=O)c3ccccc3)c2c1', 'inactive'),
  ('COc1cccc(-n2c(=S)sc3c(=O)n(-c4ccccc4OC)c(SCC4OCCO4)nc32)c1', 'inactive'),
  ('COc1cccc(NC(=O)CN(C)C(=O)c2ccccc2CCc2ccccc2)c1', 'inactive'),
  ('CSc1cccc(NC(=O)CN2C(=O)COc3ccc(S(=O)(=O)N4CCOCC4)cc32)c1', 'inactive'),
  ('CCN(CC)CCCNC(=O)c1cc2c(=O)[nH]c3ccc(C)cc3c2s1', 'inactive'),
  ('COc1cccc(CNC(=O)Cn2c(=O)oc3cc(S(=O)(=O)N4CCCCC4)ccc32)c1', 'inactive'),
  ('O=C1CCCC(O)=C1N=Nc1ccc2ncsc2c1', 'active'),
  ('COc1cc2c(cc1OC)C(c1cccc([N+](=O)[O-])c1)=NCC2', 'inactive'),
  ('CCNC(=S)N(CCN(CC)CC)Cc1cc2cc3c(cc2[nH]c1=O)OCCO3', 'inactive'),
  ('CC(C)(C)C1CCC(C(=O)NCC(c2cccs2)N2CCOCC2)CC1 (centres undefined)', 'inactive'),
  ('CSCc1cc(N(C)C)nc(SCc2ccc(Cl)cc2Cl)n1', 'inactive'),
  ('COc1ccc(-c2onc(C)c2-c2ccc3c(c2)OCCO3)c(O)c1', 'inactive'),
  ('Cc1ccn2c(c1)nc(=O)c1cc(S(=O)(=O)N3CCC(C)CC3)ccc12', 'inactive'),
  ('COc1ccccc1Nc1nc(N)nc(CSC(=S)N2CCOCC2)n1', 'inactive'),
  ('CN(CC(=O)Nc1ccc(F)cc1)C(=O)c1ccc(-c2ccc(Cl)cc2)o1', 'inactive'),
  ('CCOCCc1nn2c(=O)cc(CSCC(=O)Nc3cccc(C)c3C)nc2s1', 'inactive'),
  ('CC(=O)c1ccc(NC(=O)CCNS(=O)(=O)c2cc(Br)cnc2N)cc1', 'inactive'),
  ('CCOC(=O)c1ccc(NC(=O)c2ccc(NC(=O)C3CCCO3)cc2)cc1 (centres undefined)', 'inactive'),
  ('Cc1nc(COc2cc3oc(=O)cc(C)c3cc2Cl)cs1', 'inactive'),
  ('Cc1csc(Nc2ccc(Cl)cc2)[n+]1-c1ccc(Cl)cc1', 'inactive'),
  ('CC(C)(C)OC(=O)NCCCCCC(=O)N/N=C/c1coc2ccccc2c1=O', 'active'),
  ('O=C(NCc1csc(-c2cccs2)n1)C1CC1', 'active'),
  ('CN(CCC1CCOCC1)C(=O)CC1C(=O)NCCN1Cc1cccc(F)c1 (centres undefined)', 'inactive'),
  ('O=C1CCCC(O)=C1N=Nc1ccc(S(=O)(=O)N2CCOCC2)cc1', 'inactive'),
  ('C[C@H](NC(=O)c1nc[nH]c1C(=O)NCC(=O)OC(C)(C)C)c1ccccc1', 'inactive'),
  ('O=C(NCCCN1CCCCC1)C1CC(=O)N(CCc2ccccc2)C1 (centres undefined)', 'inactive'),
  ('Cc1ccc(C(=O)CCC(=O)N(C)CC(=O)Nc2c(Cl)cccc2Cl)cc1', 'inactive');

From: PubChem BioAssay AID2315
